# protocol-summary: NCI Yeast Anticancer Drug Screen. Data for the cln2 rad14 strain (AID 165)
# settings: S. cerevisiae cln2 rad14 strain, at 50.0 µM, hits give high values
About 79,000 compounds went through this panel and 15% of them were active in at least one assay; those are over-represented in the sample as a whole. Where a SMILES comes first, the peptide text is derived from it. [ ]: non-standard residue; d: D form. The star is where a group is joined. ξ: configuration not given here. X15 = COc1ccc(C(N*)c2ccc(OC)cc2)cc1; NMeF = CN[C@@H](Cc1ccccc1)C(=O)O; NMeD = CN[C@@H](CC(=O)O)C(=O)O; NMeV = CN[C@H](C(=O)O)C(C)C; ξNMeV = CNC(C(=O)O)C(C)C; Boc = CC(C)(C)OC(=O)*; ξNMeA = CNC(C)C(=O)O; ξV = CC(C)C(N)C(=O)O
Group membership follows growth inhibition per the scheme lower: < -20%; middle: ≥ -20% and < 10%; upper: ≥ 10%

INSERT INTO results (compound, answer_label) VALUES
  ('COC(=O)CCOc1ccc(C)cc1', 'upper'),
  ('O=C(/C=C/c1ccc2c(c1)OCO2)CC(=O)/C=C/c1ccc2c(c1)OCO2', 'middle'),
  ('O=C(NNC(=O)c1ccccc1F)c1ccc2ccccc2c1', 'middle'),
  ('OCCN(CCO)c1ccc(O)cc1', 'upper'),
  ('CC(C)c1ccccc1[S+]1OC(C)(C)c2ccccc21 (stereo not drawn)', 'middle'),
  ('CC(=Nc1ccc(C)cc1)NNc1nc2ccccc2s1', 'lower'),
  ('CCCCN(CCCC)CC(O)C=O (stereo not drawn)', 'middle'),
  ('O=CC(NC(=O)C(O)C(O)C(O)C(O)CO)C(O)C(O)C(O)CO (stereo not drawn)', 'lower'),
  ('O=C1c2ccccc2C(=O)N1/N=[N+](\[O-])N1Cc2ccccc2C1', 'middle'),
  ('CCOC(OCC)c1ccccc1OC', 'middle'),
  ('C/C(CC(=O)Nc1ccc(Cl)c(Cl)c1)=N/NC(=O)C[N+](C)(C)C', 'upper'),
  ('COc1ccc(C(O)C2CCCN(C)S2(=O)=O)cc1 (stereo not drawn)', 'upper'),
  ('CC(=O)Nc1ccc(S(=O)(=O)Nc2cc(Cl)cc(Cl)c2)cc1', 'middle'),
  ('N#CC(c1ccccc1)C1CCN(Cc2ccccc2)CC1 (stereo not drawn)', 'upper'),
  ('c1ccc(-c2cc(-c3ccncc3)c(-c3ccccc3)nn2)cc1', 'upper'),
  ('CC(C)(N=NC(C)(C)C(=O)NCCO)C(=O)NCCO', 'upper'),
  ('CCCCOC(=O)c1ccc(NC(=O)CCC(C)Cl)cc1 (stereo not drawn)', 'lower'),
  ('COc1ccc2ccccc2c1Br', 'lower'),
  ('NC(CSC(c1ccccc1)(c1ccccc1)c1ccccc1)C(=O)OC(c1ccccc1)c1ccccc1 (stereo not drawn)', 'lower'),
  ('CCOC(=O)Nc1ccc(NC(C)=O)cc1', 'lower'),
  ('COc1ccc(C(O)(c2ccc(OC)cc2)c2ccccc2Cc2ccccc2OC)cc1', 'lower'),
  ('O=C(O)c1cscn1.O=C(O)c1cscn1.[I][Pt][I]', 'middle'),
  ('CS(=O)(=O)OC[C@@H](O)[C@@H](O)COS(C)(=O)=O', 'lower'),
  ('C[N+]([O-])=C(c1ccccc1)c1ccccc1', 'middle'),
  ('CCN(CC)C(C)(C)C(=O)/C=C/c1ccc(C)cc1', 'upper'),
  ('O=C(Cc1nc2ccc(C(=O)c3ccccc3)cc2[nH]c1=O)C(=O)Nc1nc2ccccc2[nH]1', 'middle'),
  ('NC1=C(O)C(=O)C(c2ccccc2)O1 (stereo not drawn)', 'lower'),
  ('COc1ccccc1NC(=O)/C(=C/C1CC(=O)NC1=S)C(C)=O (stereo not drawn)', 'upper'),
  ('O=C1C2CCOC2N=C2CCCN12 (stereo not drawn)', 'middle'),
  ('Cn1cnc2ncnc(Nc3ccc(Cl)cc3)c21', 'lower'),
  ('Cc1ccc(O)c(C(C)(C)C)c1', 'upper'),
  ('Cc1ccc(S(=O)(=O)NC2(C=O)CCCC3CCCCC32)cc1 (stereo not drawn)', 'middle'),
  ('N#CCCN1CCCSC1=S', 'middle'),
  ('CCCC1OCCO1', 'middle'),
  ('COc1ccc(C(NC(=O)C[C@@H](C(=O)N(C)C(C)C(=O)O)N(C)C(=O)[C@@H]2CCCN2C(=O)[C@H](C(C)C)N(C)C(=O)C(C(C)C)N(C)C(=O)[C@H](Cc2ccccc2)N(C)C(=O)C(NC(=O)OC(C)(C)C)C(C)C)c2ccc(OC)cc2)cc1 (stereo partly drawn) (Boc-[ξV][NMeF][ξNMeV][NMeV]P[NMeD](X15)[ξNMeA]-OH)', 'middle'),
  ('CCN(CC)CCCC(C)NC(=O)c1ccc2c(c1O)C(=O)c1ccccc1C2=O (stereo not drawn)', 'upper'),
  ('Cc1cccc(N=Cc2ccc(Cl)cc2Cl)c1C', 'upper'),
  ('O=C(Cc1ccccc1)NN1C(=O)C(Cl)C1c1ccccc1 (stereo not drawn)', 'middle'),
  ('N=C1C=C/[N+](=C\C=CCO)C([O-])=N1', 'middle'),
  ('CCCCCCCCCCCCCCCCS(=O)(=O)N/N=C/c1ccccc1O', 'upper'),
  ('CCOC(=O)c1cnc2c(ccc3ncccc32)c1Cl', 'upper'),
  ('CC(=O)c1c(Cl)cc(Cl)c(Cl)c1Cc1c(Cl)c(Cl)cc(Cl)c1C(C)=O', 'upper'),
  ('CCC(O)(Cc1ccccc1)C(C(=O)O)c1ccccc1 (stereo not drawn)', 'middle'),
  ('C/C(=N/N(C)C)c1ccc(C)cc1', 'lower'),
  ('Cc1nnc(Nc2ccc(Cl)c(Cl)c2)s1', 'upper'),
  ('CSC1(C)C(=O)Nc2ccc(C(F)(F)F)cc21 (stereo not drawn)', 'upper'),
  ('CC(C)=NNC=N/C(C#N)=C(\N)C#N', 'upper');
